Data origin: PubChem BioAssay (NCATS)

- Assay comment: qHTS of pediatric cancer cell lines to identify multiple opportunities for drug repurposing: Primary screen for TC32 cells (AID 1347089); further: nearly all actives have a fitted effect of over 60% in size
- Condition notes: TC32 Ewing sarcoma viability, CellTiter-Glo luminescence, 48 h; series mostly up to 45.8 µM
Inconclusive results are not listed. Activity calls are given as the source filed them. The call rests on the fitted dose curve; in most records, active means well fitted cell-killing curve with a large enough effect; inconclusive means small, poorly fitted or top-dose-only effect; inactive means flat fitted curve, though single readings scatter.
Mark one answer only. Choices: Yes (active), No (inactive)

Below are worked cases with known answers.
Molecule	Answer label
Oc1cc(O)c2c(c1)O[C@H](c1ccc(O)c(O)c1)[C@H](O)C2	No
O=c1[nH]c(=O)n([C@H]2CCCO2)cc1F	No
CC(Cc1ccccc1)(NC(=O)CN)c1ccccc1 (stereo unspecified)	No
NCCC(O)(P(=O)(O)O)P(=O)(O)O	No
CN(C)CC/C=C1/c2ccccc2COc2ccc(CC(=O)O)cc21	No

What call does the record list for `CC(O)(P(=O)(O)O)P(=O)(O)O` ?
No

Kindly provide the recorded test outcome for the following molecule: `CCCCOc1cc(C(=O)NCCN(CC)CC)c2ccccc2n1`
No

Fill in: this test's call for `Cc1c(C)n(CCN(C)C)c2ccc(C(=O)OCCN(C)C)cc12` is ___
No

* * *

- Assay comment: Cell Viability - LYMP2-019 (AID 973);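 further: cells exposed to compound for 24 h at 37 °C; nearly all actives have a fitted effect of over 55% in size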
- Condition notes: LYMP2-019 lymphoblastoid cell line viability; series mostly up to 92.2 µM
Records with an inconclusive call do not appear. Calls of active or inactive are those of the source. Calls come from the whole dose curve; as a rule, active = well fitted cell-killing curve with a large enough effect; inconclusive = small, poorly fitted or top-dose-only effect; inactive = flat fitted curve, though single readings scatter.
Permitted responses: yes for active, no for inactive

> print(dat)
                                   molecule  answer.label
1                          O=c1ccc2ccccc2o1            no
2  COc1cccc2c1C(=O)c1c(O)c3c(c(O)c1C2=O)C[C@@](O)(C(C)=O)C[C@@H]3O[C@H]1C[C@H](N)[C@H](O)[C@H](C)O1           yes
3           CC(O)C(=O)O (centres undefined)            no
4       CC/C(=C(/CC)c1ccc(O)cc1)c1ccc(O)cc1            no
5  O=C1OC(c2ccc(O)cc2)(c2ccc(O)cc2)c2ccccc21            no

Assay result, entry `C=C(CC)C(=O)c1ccc(OCC(=O)O)c(Cl)c1Cl` — outcome?
yes

Test call, this molecule: `Nc1ccc(C(=O)O)cc1`
no

Per the assay record, what outcome was assigned to `O=C(O)CCCCC(=O)O` ?
no

Just curious, what result did `COc1cccc2c1C(=O)c1c(O)c3c(c(O)c1C2=O)C[C@@](O)(C(=O)CO)C[C@@H]3O[C@H]1C[C@H](N)[C@H](O)[C@H](C)O1` get here?
yes

* * *

- Assay comment: qHTS of pediatric cancer cell lines to identify multiple opportunities for drug repurposing: Confirmatory screen for A673 cells (AID 1347110);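 further: cells exposed to compound for 48 h before the viability read; nearly all actives have a fitted effect of over 65% in size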; further: potency means the concentration at half of the fitted maximal effect
- Condition notes: A673 Ewing sarcoma cell viability; series mostly up to 45.9 µM
Inconclusive results are not listed. Active and inactive are the calls of the source. Calls come from the whole dose curve; as a rule, active = well fitted cell-killing curve with a large enough effect; inconclusive = small, poorly fitted or top-dose-only effect; inactive = flat fitted curve, though single readings scatter.

Sample smiles	Potency
COc1c(C)c2c(c(O)c1C/C=C(\C)CCC(=O)O)C(=O)OC2	2.61 µM (active)
NC(=O)CC[C@@H]1NC(=O)[C@H](Cc2ccccc2)NC(=O)[C@H](Cc2ccc(O)cc2)NC(=O)CCSSC[C@@H](C(=O)N2CCC[C@H]2C(=O)N[C@@H](CCCN=C(N)N)C(=O)NCC(N)=O)NC(=O)[C@H](CC(N)=O)NC1=O	inactive
CC(=O)OCC(=O)[C@@]1(O)CC[C@H]2[C@@H]3CCC4=CC(=O)C=C[C@]4(C)[C@H]3[C@@H](O)C[C@@]21C	inactive
CN(C)/N=N/c1nc[nH]c1C(N)=O	inactive
